- test-method-notes: qHTS assay to identify small molecule antagonists of the farnesoid-X-receptor (FXR) signaling pathway - cell viability counter screen (AID 743221); also: nearly all actives have a fitted effect of over 50% in size
- experimental-conditions: FXR-bla HEK293T viability, CellTiter-Glo luminescence, 16 h; series mostly up to 62.6 µM
Inconclusive results are not listed. Activity calls are given as the source filed them. Calls follow the shape of the dose curve; as a rule, active = well fitted cell-killing curve with a large enough effect in the repeat runs (not every such curve was filed as active); inconclusive = weak or mixed curves, or effect the other way; inactive = no such curve, though single readings can be large or run the other way.
endpoint: outcome

{"columns": ["compound", "outcome"],
 "data": [
  ["Nc1ccc(O)c(N)c1", "inactive"],
  ["C[C@]12C=CC(=O)C=C1CC[C@H]1[C@@H]3C[C@@H](O)[C@](O)(C(=O)CO)[C@@]3(C)C[C@H](O)[C@@]12F", "inactive"],
  ["COC(=O)c1ccc(C)cc1", "inactive"],
  ["ClC/C=C/CCl", "inactive"],
  ["CC[C@]12CCCN3CCc4c(n(c5ccccc45)[C@@](O)(C(=O)OC)C1)[C@@H]32", "inactive"]
]}

Qu. For COc1ccc2nc(N)sc2c1 , what is its reported outcome?
Ans. inactive

Qu. Next compound: NCCN
Ans. inactive

Qu. Here is the next compound: Clc1ccc(Sc2cc(Cl)c(Cl)cc2Cl)cc1
Ans. inactive

Qu. Okay, and CCCCCC1C(=O)CCC1CC(=O)OC (centres undefined) ?
Ans. inactive

Qu. Continue with [Na+]
Ans. inactive

Qu. And the next one, COC(=O)C(C)Oc1ccc(Oc2ncc(C(F)(F)F)cc2Cl)cc1 (centres undefined) ?
Ans. inactive

Qu. Moving on to the next compound: CN(C)C
Ans. inactive

Qu. Note, next up: c1ccc2cc3ccccc3cc2c1
Ans. inactive

Qu. And for CC(=O)O[C@]1(C(C)=O)CC[C@H]2[C@@H]3C=C(C)C4=CC(=O)CC[C@]4(C)[C@H]3CC[C@@]21C ?
Ans. inactive

###

- test-method-notes: Human pregnane X receptor (PXR) small molecule agonists, qHTS cell viability counter screen (AID 1346977); also: nearly all actives have a fitted effect of over 50% in size
- experimental-conditions: PXR-Luc HepG2 viability, CellTiter-Fluor, 24 h; series mostly up to 92.4 µM
Records with an inconclusive call do not appear. The source made the active and inactive calls. The call rests on the fitted dose curve; in most records, active means well fitted cell-killing curve with a large enough effect in the repeat runs; inconclusive means weak or mixed curves, or effect the other way; inactive means flat fitted curve, though single readings scatter.
Classes to choose from: active, inactive

{"columns": ["compound", "group-label"],
 "data": [
  ["C1COCCN1", "inactive"],
  ["Cc1ccc(C(C)(C)C)c(O)c1", "inactive"]
]}

Qu. Please state the recorded outcome for this compound: CC[C@]12CCCN3CCc4c(n(c5ccccc45)[C@@](O)(C(=O)OC)C1)[C@@H]32
Ans. inactive

Qu. Again, but for Oc1ccc(C(c2ccc(O)cc2)C(Cl)(Cl)Cl)cc1
Ans. inactive

Qu. // query: C=CC(C)(O)CCC=C(C)C (stereo not drawn)
Ans. inactive

Qu. Next up: CC(=O)O[C@]1(C(C)=O)CC[C@H]2[C@@H]3C=C(C)C4=CC(=O)CC[C@]4(C)[C@H]3CC[C@@]21C
Ans. inactive

Qu. What do you get for CCC(Cc1c(I)cc(I)c(N)c1I)C(=O)O (stereo not drawn) ?
Ans. inactive

###

- test-method-notes: qHTS assay for identifying genotoxic compounds that show differential cytotoxicity against isogenic chicken DT40 cell lines with known DNA damage response pathways - Rad54/Ku70 mutant cell line (AID 743015); also: nearly all actives have a fitted effect of over 60% in size; also: potency is read from the fitted curve at half-maximal effect
- experimental-conditions: DT40 Rad54/Ku70 mutant viability, CellTiter-Glo, 40 h; series mostly up to 66.8 µM
Inconclusive results are not listed. Active and inactive are the calls of the source. Calls follow the shape of the dose curve; as a rule, active = well fitted cell-killing curve with a large enough effect in the repeat runs; inconclusive = weak or mixed curves; inactive = no such curve, though single readings can be large or run the other way.
endpoint: Potency

Examples with their reported Potency follow.
{"columns": ["smiles-notation", "Potency"],
 "data": [
  ["Cc1ccc([N+](=O)[O-])c(C)c1", "inactive"],
  ["COC(=O)CC(=O)OC", "inactive"],
  ["CC(=O)[C@@]1(O)CC[C@H]2[C@@H]3C[C@H](C)C4=CC(=O)C=C[C@]4(C)[C@@]3(F)[C@@H](O)C[C@@]21C", "43.3 µM (active)"],
  ["c1ccc2cc3ccccc3cc2c1", "inactive"],
  ["COc1ccc(-c2coc3cc(O)cc(O)c3c2=O)cc1", "27.3 µM (active)"],
  ["O=C(O)CCCCCCCCCCCC(=O)O", "inactive"],
  ["IC(I)I", "inactive"],
  ["Brc1nc2ccccc2s1", "inactive"],
  ["O=C(O)CCCC(=O)O", "inactive"],
  ["C[C@]12C=CC(=O)C=C1CC[C@H]1[C@@H]3C[C@@H](O)[C@](O)(C(=O)CO)[C@@]3(C)C[C@H](O)[C@@]12F", "48.6 µM (active)"]
]}

Qu. Quick one: Potency of CCCCCC=O ?
Ans. inactive

Qu. And what about the molecule CCCN1C=CN(C)C1 ?
Ans. inactive

Qu. Again, but for O=C(O)c1cc(=O)[nH]c(=O)[nH]1
Ans. inactive

###

- test-method-notes: qHTS assay to identify small molecule HDAC inhibitors - cell viability counter screen (AID 1259365); also: nearly all actives have a fitted effect of over 50% in size
- experimental-conditions: HCT-116 viability, CellTiter-Glo ATP luminescence, 2 h; series mostly up to 92.4 µM
Active and inactive are the calls of the source. Calls come from the whole dose curve; as a rule, active = well fitted cell-killing curve with a large enough effect in the repeat runs; inconclusive = weak or mixed curves, or effect the other way; inactive = flat fitted curve, though single readings scatter.
endpoint: outcome

Please review the following examples before continuing.
{"columns": ["compound", "outcome"],
 "data": [
  ["COc1cc([C@H]2Oc3cc([C@H]4Oc5cc(O)cc(O)c5C(=O)[C@@H]4O)ccc3O[C@@H]2CO)ccc1O", "inactive"],
  ["NC[C@H](O)c1ccc(O)c(O)c1", "inactive"],
  ["FC(F)(F)C(Cl)Br (stereo not given)", "inactive"],
  ["CCCCCCCCCCC(CO)CCCCCCCC (stereo not given)", "inactive"]
]}

Qu. outcome lookup needed for O=C(O)CCCCCCCCCCCC(=O)O , thanks.
Ans. inactive

Qu. How about this compound: COc1ccc2nc(N)sc2c1
Ans. inactive

Qu. Follow-up entry: CC(C)[C@@H]1CC[C@@H](C)CC1=O
Ans. inactive

###

- system-under-test: Bile acid receptor (Homo sapiens)
- test-method-notes: qHTS assay to identify small molecule agonists of the farnesoid-X-receptor (FXR) signaling pathway (AID 743220)
- experimental-conditions: HEK293T FXR-UAS-bla, beta-lactamase FRET ratio, 16 h; series mostly up to 62.6 µM
Results filed as inconclusive are left out. Activity calls are given as the source filed them. The call rests on the fitted dose curve; in most records, active means well fitted activation curve with a large enough effect in the signal ratio in the repeat runs (not every such curve was filed as active); inconclusive means weak or mixed curves, or effect the other way; inactive means flat fitted curve, though single readings scatter; the % refers to the signal ratio.
endpoint: outcome

{"columns": ["compound", "data-value"],
 "data": [
  ["CC(=O)[C@H]1CC[C@H]2[C@@H]3CC=C4C[C@@H](O)CC[C@]4(C)[C@H]3CC[C@]12C", "inactive"],
  ["COc1cc([C@H]2Oc3cc([C@H]4Oc5cc(O)cc(O)c5C(=O)[C@@H]4O)ccc3O[C@@H]2CO)ccc1O", "inactive"],
  ["CCCOCCO", "inactive"],
  ["C=CC(C)(O)CCC=C(C)C (stereo unspecified)", "inactive"],
  ["CC(=O)[C@@]1(O)CC[C@H]2[C@@H]3C[C@H](C)C4=CC(=O)C=C[C@]4(C)[C@@]3(F)[C@@H](O)C[C@@]21C", "inactive"]
]}

Query compound follows.
Qu. Bile acid receptor (Homo sapiens) / outcome / CC1(C)OC(=O)NC1=O : value?
Ans. inactive

###

- test-method-notes: A CellTox Green Cytotoxicity Assay to monitor cytotoxicity in HepG2 cells - 8 hour (AID 1224890); also: nearly all actives have a fitted effect of over 45% in size
- experimental-conditions: CellTox Green fluorescence; series mostly up to 76.8 µM
Results filed as inconclusive are left out. Active and inactive are the calls of the source. The call rests on the fitted dose curve; in most records, active means well fitted activation curve with a large enough effect in the repeat runs; inconclusive means weak or mixed curves; inactive means flat fitted curve, though single readings scatter.
Result category, one only: y = active, n = inactive

Here are 5 molecules together with their reported answers.
{"columns": ["molecule", "group-label"],
 "data": [
  ["CC/C=C\\C/C=C\\C/C=C\\CCCCCCCC(=O)O", "n"],
  ["C/C=C/C(=O)N(CC)c1ccccc1C", "n"],
  ["c1ccc2c(c1)ccc1cc3c(ccc4ccccc43)cc12", "n"],
  ["C=C[C@H]1CN2CC[C@H]1C[C@H]2[C@H](O)c1ccnc2ccc(OC)cc12", "n"],
  ["[O-]/[N+](=N\\O)c1ccccc1", "n"]
]}

Qu. What was the test verdict on CCC/C=C/C=O ?
Ans. n

Qu. What would you report for c1ccc2c(c1)[nH]c1ccccc12 ?
Ans. n

Qu. Another: O=C1OC2(c3ccccc31)c1cc(I)c(O)c(I)c1Oc1c2cc(I)c(O)c1I
Ans. y

Qu. Further, for c1ccc2ncccc2c1 ?
Ans. n

Qu. Next entry: CCCCCCCCCCC(CO)CCCCCCCC (centres undefined)
Ans. n

Qu. // next record CCCCCCC(C)O (centres undefined)
Ans. n

###

- system-under-test: Retinoic acid receptor RXR-alpha (Homo sapiens) (UniProt P19793)
- Sequence (P19793 whole entry, looked up): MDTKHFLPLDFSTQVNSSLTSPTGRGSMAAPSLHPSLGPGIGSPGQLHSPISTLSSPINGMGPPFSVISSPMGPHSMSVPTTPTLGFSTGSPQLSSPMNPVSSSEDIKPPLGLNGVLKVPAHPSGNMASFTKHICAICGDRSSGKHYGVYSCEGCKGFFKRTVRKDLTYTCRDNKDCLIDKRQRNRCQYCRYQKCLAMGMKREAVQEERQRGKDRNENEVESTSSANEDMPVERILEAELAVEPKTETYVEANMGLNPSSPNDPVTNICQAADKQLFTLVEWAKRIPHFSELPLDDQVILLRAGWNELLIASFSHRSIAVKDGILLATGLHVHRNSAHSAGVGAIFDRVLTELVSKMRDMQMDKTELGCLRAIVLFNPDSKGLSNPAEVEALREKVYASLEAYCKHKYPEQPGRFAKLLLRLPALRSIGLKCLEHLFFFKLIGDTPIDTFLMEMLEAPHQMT
- test-method-notes: qHTS assay to identify small molecule agonists of the RXR signaling pathway (AID 1159527); also: nearly all actives have a fitted effect of over 35% in size
- experimental-conditions: HEK293T RXRa-UAS-bla, beta-lactamase ratio, 16 h; series mostly up to 76.8 µM
Records with an inconclusive call do not appear. Calls of active or inactive are those of the source. Calls come from the whole dose curve.
endpoint: outcome

{"columns": ["smiles-notation", "outcome"],
 "data": [
  ["CCCCCCCCCCCCCO", "inactive"],
  ["NCCN", "inactive"],
  ["COCCOCCOCCO", "inactive"],
  ["Nc1ccc(N)c(Cl)c1", "inactive"],
  ["Cc1ccc(C(C)(C)C)cc1", "inactive"],
  ["CC(=O)[C@@]1(O)CC[C@H]2[C@@H]3C[C@H](C)C4=CC(=O)C=C[C@]4(C)[C@@]3(F)[C@@H](O)C[C@@]21C", "inactive"],
  ["CC(=O)Nc1ccc2c(c1)Cc1cc(NC(C)=O)ccc1-2", "inactive"],
  ["CC(C)[C@@H]1CC[C@@H](C)CC1=O", "inactive"],
  ["Nc1ccc2c(c1)C(=O)c1ccccc1C2=O", "inactive"],
  ["COC(=O)CC(=O)OC", "inactive"]
]}

Qu. Fill in: outcome of [O-]/[N+](=N\O)c1ccccc1 is ___
Ans. inactive

Qu. Now consider Cc1ccc(/C(=C\CN2CCCC2)c2ccccn2)cc1 and answer again.
Ans. inactive

Qu. Another compound: O=C(O)CCCCCCCCCCCC(=O)O
Ans. inactive

Qu. What about c1ccc2cc3ccccc3cc2c1 ?
Ans. inactive
